Where do the numbers come from? From patent EP4644375A1.

Experiment: In vivo GBM rat model: plasma chemistry
Parameters: unit not given here
Conditions: GBM rats, 30 mg/kg oral, 5 days, plasma at necropsy
Description: The parameters that were analysed can be seen in Table 11.
As shown below, each of these compounds has a reported TCHOL value.

structure as smiles	TCHOL
COc1cc(NC(=O)COc2ccc3c(c2)CCC(=O)N3)cc(OC)c1	54.43
C=CCOC(=O)COc1ccc2c(c1)CCC(=O)N2	53.35
C=Cc1ccc(COc2ccc3c(c2)CCC(=O)N3)cc1	56.33
O=C(COc1ccc2c(c1)CCC(=O)N2)N/N=C/c1cnc(-c2ccc(Cl)cc2)nc1	58.56
O=C1CCc2cc(OS(=O)(=O)c3cccc4ccccc34)ccc2N1	56.52
CC(C)CCOc1ccc2c(c1)CCC(=O)N2	54.38
